- Test system: Key Grass and Sedge Weeds as well as Grass Crops
- measurement-protocol: Post-emergent Test II herbicidal activity (Table 6)
- Format: in vivo
- settings: post-emergence, 336 h, ZEAMX: maize, corn (Zea mays), application rate 140 g ai/ha, read-out: Visual Growth Reduction (%) 14 Days After Application, ZEAMX
attribute-measured: pest or weed control at 140 g/ha

Some solved cases for reference:
| compound-string | assayed-system | attribute-measured | obs-value |
| --- | --- | --- | --- |
| C=Cc1c(C(=O)O)nc(-c2ccc(Br)cc2)c(F)c1N | Key Grass and Sedge Weeds as well as Grass Crops | pest or weed control at 140 g/ha | 60 to 74% |
| Cc1cc(F)c(-c2cc(N)c(Cl)c(C(=O)O)n2)cc1F | Key Grass and Sedge Weeds as well as Grass Crops | pest or weed control at 140 g/ha | 0 to 29% |
| COC(=O)c1nc(-c2cccc(F)c2)c(F)c(N)c1Cl | Key Grass and Sedge Weeds as well as Grass Crops | pest or weed control at 140 g/ha | 0 to 29% |
| C#Cc1ccc(-c2nc(N)c(OC)c(C(=O)O)n2)c(F)c1F | Key Grass and Sedge Weeds as well as Grass Crops | pest or weed control at 140 g/ha | 0 to 29% |
| COC(=O)c1nc(-c2ccc(Br)cc2F)cc(N)c1Cl | Key Grass and Sedge Weeds as well as Grass Crops | pest or weed control at 140 g/ha | 75 to 84% |

query: Tell me pest or weed control at 140 g/ha reported for COC(=O)c1nc(-c2cc(F)c(C#N)cc2F)cc(N)c1Cl
result: 45 to 59%

query: Tell me pest or weed control at 140 g/ha reported for COC(=O)c1nc(-c2cc(F)c(C)cc2F)c(F)c(N)c1Cl
result: 0 to 29%

query: Tell me pest or weed control at 140 g/ha reported for Nc1c(F)c(-c2cc(F)c(OC(F)F)cc2F)nc(C(=O)O)c1Cl
result: 0 to 29%

query: Tell me pest or weed control at 140 g/ha reported for Nc1c(F)c(-c2ccc(OC(F)F)c(F)c2)nc(C(=O)O)c1Cl
result: 60 to 74%

query: Tell me pest or weed control at 140 g/ha reported for C#Cc1ccc(-c2nc(N)c(OC)c(C(=O)O)n2)cc1
result: 60 to 74%

---

- Test system: Key Grass and Sedge Weeds as well as Grass Crops
- measurement-protocol: Post-emergent Test II herbicidal activity (Table 6)
- Assay type: in vivo
- settings: post-emergence, 336 h, DIGSA: crabgrass (Digitaria sanguinalis), application rate 70 g ai/ha, read-out: Visual Growth Reduction (%) 14 Days After Application, DIGSA
attribute-measured: pest or weed control at 70 g/ha

| compound-string | pest or weed control at 70 g/ha |
| --- | --- |
| COC(=O)c1nc(-c2ccc(I)cc2F)cc(N)c1Cl | 85 to 94% |
| Cc1cc(F)c(-c2cc(N)c(Cl)c(C(=O)O)n2)cc1F | 0 to 29% |
| C=Cc1c(N)nc(-c2ccc(C(F)(F)F)c(F)c2)nc1C(=O)O | 0 to 29% |
| COC(=O)c1nc(-c2cc(F)c(I)cc2F)cc(N)c1Cl | 75 to 84% |

Let us move to another entry and its pest or weed control at 70 g/ha.
query: Tell me pest or weed control at 70 g/ha reported for Cc1c(-c2ccc(I)cc2)nc(C(=O)O)c(Cl)c1N
result: 45 to 59%

---

- System: Key Broadleaf Weed and Crop Species
- measurement-protocol: Post-emergent Test II herbicidal activity (Table 5)
- Type: in vivo
- settings: post-emergence, 336 h; CHEAL: lambsquarters (Chenopodium album); 140 g ai/ha; post-emergent; 14 days after application; read-out: Visual Growth Reduction (%) 14 Days After Application CHEAL
attribute-measured: pest or weed control at 140 g/ha

| compound-string | pest or weed control at 140 g/ha |
| --- | --- |
| Cc1c(-c2ccc(C(F)(F)F)c(F)c2)nc(C(=O)O)c(Cl)c1N | 95 to 100% |

Let us move to another entry and its pest or weed control at 140 g/ha.
query: Tell me pest or weed control at 140 g/ha reported for COC(=O)c1nc(-c2cc(F)c(C(F)F)cc2F)cc(N)c1Cl
result: 95 to 100%

---

- Tested on: Key Grass and Sedge Weeds as well as Grass Crops
- measurement-protocol: Post-emergent Test II herbicidal activity (Table 6)
- Format: in vivo
- settings: post-emergence, 336 h, SETFA: giant foxtail (Setaria faberi), application rate 70 g ai/ha, read-out: Visual Growth Reduction (%) 14 Days After Application, SETFA
attribute-measured: pest or weed control at 70 g/ha

Some solved cases for reference:
| compound | assayed-system | pest or weed control at 70 g/ha |
| --- | --- | --- |
| COC(=O)c1nc(-c2cc(F)c(Br)cc2F)nc(N)c1OC [Compound 2] | Key Grass and Sedge Weeds as well as Grass Crops | 45 to 59% |
| COC(=O)c1nc(-c2ccc(Br)c(F)c2)nc(N)c1OC [Compound 171] | Key Grass and Sedge Weeds as well as Grass Crops | 0 to 29% |
| Nc1c(Cl)c(C(=O)O)nc(-c2ccc(I)c(F)c2)c1Cl [Compound 145] | Key Grass and Sedge Weeds as well as Grass Crops | 75 to 84% |
| COc1c(N)nc(-c2ccc(Br)c(F)c2F)nc1C(=O)O [Compound 8] | Key Grass and Sedge Weeds as well as Grass Crops | 75 to 84% |
| C=Cc1c(N)nc(-c2ccc(F)c(F)c2F)nc1C(=O)O [Compound 191] | Key Grass and Sedge Weeds as well as Grass Crops | 75 to 84% |
| Cc1c(-c2ccc(I)c(F)c2)nc(C(=O)O)c(Cl)c1N [Compound 87] | Key Grass and Sedge Weeds as well as Grass Crops | 60 to 74% |

Let us move to another entry and its pest or weed control at 70 g/ha.
query: Tell me pest or weed control at 70 g/ha reported for COC(=O)c1nc(-c2cc(F)c(C(F)(F)F)cc2F)nc(N)c1OC [Compound 148]
result: 0 to 29%

---

- System: Key Grass and Sedge Weeds as well as Grass Crops
- measurement-protocol: Post-emergent Test II herbicidal activity (Table 6)
- Assay type: in vivo
- settings: post-emergence, 336 h, SORVU: grain sorghum (Sorghum vulgare), application rate 140 g ai/ha, read-out: Visual Growth Reduction (%) 14 Days After Application, SORVU
attribute-measured: pest or weed control at 140 g/ha

Some solved cases for reference:
| compound-string | pest or weed control at 140 g/ha |
| --- | --- |
| COC(=O)c1nc(-c2cc(F)c(OC(F)F)cc2F)cc(N)c1Cl | 45 to 59% |
| COC(=O)c1nc(-c2cc(F)ccc2F)c(F)c(N)c1Cl | 0 to 29% |
| COC(=O)c1nc(-c2ccc(C(F)(F)F)c(F)c2)cc(N)c1Cl | 45 to 59% |
| C=Cc1c(N)nc(-c2ccc(F)c(F)c2F)nc1C(=O)O | 45 to 59% |

query: Tell me pest or weed control at 140 g/ha reported for COc1c(N)nc(-c2ccc(C(F)(F)F)c(F)c2)nc1C(=O)O
result: 30 to 44%

query: Tell me pest or weed control at 140 g/ha reported for COC(=O)c1nc(-c2cc(F)c(C)cc2F)cc(N)c1Cl
result: 45 to 59%

query: Tell me pest or weed control at 140 g/ha reported for COc1c(N)nc(-c2ccc(I)c(F)c2)nc1C(=O)O
result: 85 to 94%

query: Tell me pest or weed control at 140 g/ha reported for N#Cc1ccc(-c2nc(C(=O)O)c(Cl)c(N)c2F)c(F)c1
result: 0 to 29%

query: Tell me pest or weed control at 140 g/ha reported for Cc1c(-c2ccc(Br)cc2)nc(C(=O)O)c(Cl)c1N
result: 0 to 29%

query: Tell me pest or weed control at 140 g/ha reported for Nc1c(Cl)c(C(=O)O)nc(-c2ccc(C(F)(F)F)c(F)c2)c1Cl
result: 30 to 44%

query: Tell me pest or weed control at 140 g/ha reported for C=Cc1c(N)nc(-c2ccc(C(F)(F)F)c(F)c2)nc1C(=O)O
result: 60 to 74%

query: Tell me pest or weed control at 140 g/ha reported for COC(=O)c1nc(-c2ccc(Br)c(F)c2)nc(N)c1OC
result: 45 to 59%

---

Measured pest or weed control at 35 g/ha, listed per entry.
- Tested on: LAMSS
- measurement-protocol: Post-emergent Test III, herbicidal activity in wheat and barley
- Format: in vivo
- settings: post-emergence, 504 h; Table 8; 35 g ai/ha; post-emergent; 21 d; read-out: Visual Growth Reduction (%) 21 Days After Application LAMSS

Some solved cases for reference:
| compound | obs-value |
| --- | --- |
| COC(=O)c1nc(-c2ccc(Br)c(F)c2)nc(N)c1OC [Compound 171] | 85 to 94% |
| Nc1cc(-c2ccc(Br)c(F)c2)nc(C(=O)O)c1Cl [Compound 110] | 95 to 100% |
| Nc1c(Cl)c(C(=O)O)nc(-c2ccc(I)c(F)c2)c1Cl [Compound 145] | 95 to 100% |
| Nc1cc(-c2cc(F)c(Br)cc2F)nc(C(=O)O)c1Cl [Compound 3] | 95 to 100% |
| Nc1cc(-c2ccc(I)cc2F)nc(C(=O)O)c1Cl [Compound 124] | 95 to 100% |
| COc1c(N)nc(-c2ccc(I)c(F)c2)nc1C(=O)O [Compound 37] | 85 to 94% |

query: Tell me pest or weed control at 35 g/ha reported for COC(=O)c1nc(-c2ccc(I)c(F)c2)nc(N)c1OC [Compound 27]
result: 85 to 94%
